Assay: Liver microsome stability, human
Format: in vitro ADME
Conditions: human, human liver microsomes, pH 7.4
Recorded metric: half-life at 1 μM (min)

- Compound: "C#CCn1c(C)c(C(=O)C(=O)NC(C)(C)C#C)c(C)c1C(=O)Nc1ccc(F)c(F)c1 [Compound 10a]"
  Recorded metric: "half-life at 1 μM"
  Experimental value: 9

---

The following molecules are shown together with reported log10 EC50 values.
System: HBV DNA replication in HepAD38 cells
Experiment: Anti-HBV activity, 7-day assay in HepAD38 cells
Type: cell-based, hepatitis B virus
Details: Hepatitis B virus, HePAD38, 168 h, read-out: Anti-HBV activity EC50
Recorded metric: log10 EC50 (log10 of the value in nM)

- Molecule: "C#CCNC(=O)C(=O)c1c(C)c(C(=O)Nc2ccc(F)c(F)c2)n(CC2CC2)c1C [Compound 5f]"
  log10 EC50: 1.72
- Molecule: "C#CC1(NC(=O)C(=O)c2c(C)c(C(=O)Nc3ccc(F)c(F)c3)n(C)c2C)CC1 [Compound 9d]"
  log10 EC50: -0.10
- Molecule: "C#CCNC(=O)C(=O)c1c(C)c(C(=O)Nc2ccc(F)c(F)c2)n(CC)c1C [Compound 5a]"
  log10 EC50: 0.85
- Molecule: "C#CCNC(=O)C(=O)c1c(C)c(C(=O)Nc2ccc(F)c(F)c2)n(CCCC)c1C [Compound 5c]"
  log10 EC50: 1.94
- Molecule: "C#CC1(NC(=O)C(=O)c2c(C)c(C(=O)Nc3ccc(F)c(F)c3)n(C)c2C)CCCCC1 [Compound 9f]"
  log10 EC50: 0.54
- Molecule: "C#CC(C)(CC)NC(=O)C(=O)c1c(C)c(C(=O)Nc2ccc(F)c(F)c2)n(C)c1C (stereo not drawn) [Compound 9b]"
  log10 EC50: -0.82
- Molecule: "C#CCNC(=O)C(=O)c1c(C)c(C(=O)Nc2ccc(F)c(F)c2)n(Cc2ccccc2)c1C [Compound 5j]"
  log10 EC50: 3.40
- Molecule: "C#CCNC(=O)C(=O)c1c(C)c(C(=O)Nc2ccc(F)c(F)c2)n(CC#CC)c1C [Compound 5h]"
  log10 EC50: 1.66
- Molecule: "C#CC(CC)(CC)NC(=O)C(=O)c1c(C)c(C(=O)Nc2ccc(F)c(F)c2)n(C)c1C [Compound 9c]"
  log10 EC50: -0.30
- Molecule: "C#CCn1c(C)c(C(=O)C(=O)NC(C)(C)C#C)c(C)c1C(=O)Nc1ccc(F)c(F)c1 [Compound 10a]"
  log10 EC50: -1.70
- Molecule: "C#CCNC(=O)C(=O)c1c(C)c(C(=O)Nc2ccc(F)c(F)c2)n(CCC)c1C [Compound 5b]"
  log10 EC50: 0.96
- Molecule: "C#CCNC(=O)C(=O)c1c(C)c(C(=O)Nc2ccc(F)c(F)c2)n(CC#C)c1C [Compound 5g]"
  log10 EC50: -0.06
